# Tested on: HCT-15
# test description: Cytotoxicity against human HCT15 cells after 48 hrs by MTT assay
# Format: functional, cell-based
# test context: HCT-15, 48 h
log10(IC50) listing for selected molecules.
Units before log transform: µM; reported quantity: IC50; transform: log10.

COCOCc1cc(OC)c(OC)cc1-c1cc2ccccc2c(=O)[nH]1 :: 1.87
C=CCn1c(-c2cc(OC)c(OC)cc2C=O)cc2ccccc2c1=O :: 1.89
CC[C@@]1(O)C(=O)OCc2c1cc1n(c2=O)Cc2cc3ccccc3nc2-1 :: -0.78

Request: Which measured log10(IC50) belongs to C=CCn1c(-c2cc3c(cc2C=O)OCO3)cc2ccc(OC)c(OC)c2c1=O , tested on HCT-15?
Result: 1.81

Request: Also need C=CCn1c(-c2cc3c(cc2COCOC)OCO3)cc2ccccc2c1=O , thanks.
Result: 1.56

Request: And what about the molecule COc1cc2c(cc1OC)-c1cc3ccccc3c(=O)n1CC=C2 ?
Result: 1.33

Request: Next record, please: C=CCn1c(-c2cc(OC)c(OC)cc2COCOC)cc2ccccc2c1=O
Result: 1.90

Request: Please do the same for C=CCn1c(-c2cc(OC)c(OC)cc2C=C)cc2ccccc2c1=O as well.
Result: 1.88

Request: Here is the next molecule: C=CCn1c(-c2ccc(OC)cc2COCOC)cc2ccccc2c1=O
Result: 1.44

Request: Another molecule to look at: C=CCn1c(-c2cc3c(cc2COCOC)OCO3)cc2ccc(OC)c(OC)c2c1=O
Result: 1.45

Request: Quick one: C=CCn1c(-c2ccc(OC)cc2C=O)cc2ccccc2c1=O
Result: 1.75

Request: Same lookup for COCOCc1cc2c(cc1-c1cc3ccccc3c(=O)[nH]1)OCO2 , please.
Result: 1.12

Request: Next molecule up: C=CCn1c(-c2cc3c(cc2C=C)OCO3)cc2ccccc2c1=O
Result: 1.05

Request: # iterate: O=c1c2ccccc2cc2n1CC=Cc1cc3c(cc1-2)OCO3
Result: 1.30

Request: Try this molecule next: COc1ccc2c(c1)C=CCn1c-2cc2ccccc2c1=O
Result: 1.10

Request: And the next one, COCOCc1cc(OC)ccc1-c1cc2ccccc2c(=O)[nH]1 ?
Result: 1.44

Request: Quick one: COc1ccc2cc3n(c(=O)c2c1OC)CC=Cc1cc2c(cc1-3)OCO2
Result: 0.80

Request: Same lookup for C=CCn1c(-c2cc3c(cc2C=O)OCO3)cc2ccccc2c1=O , please.
Result: 1.73

Request: Input C=CCn1c(-c2ccc(OC)cc2C=C)cc2ccccc2c1=O
Result: 1.36
